Form field: activation (one value per entry).
# target_of_assay: D(1A) dopamine receptor (Homo sapiens) (UniProt P21728)
# Sequence (P21728 whole entry, looked up): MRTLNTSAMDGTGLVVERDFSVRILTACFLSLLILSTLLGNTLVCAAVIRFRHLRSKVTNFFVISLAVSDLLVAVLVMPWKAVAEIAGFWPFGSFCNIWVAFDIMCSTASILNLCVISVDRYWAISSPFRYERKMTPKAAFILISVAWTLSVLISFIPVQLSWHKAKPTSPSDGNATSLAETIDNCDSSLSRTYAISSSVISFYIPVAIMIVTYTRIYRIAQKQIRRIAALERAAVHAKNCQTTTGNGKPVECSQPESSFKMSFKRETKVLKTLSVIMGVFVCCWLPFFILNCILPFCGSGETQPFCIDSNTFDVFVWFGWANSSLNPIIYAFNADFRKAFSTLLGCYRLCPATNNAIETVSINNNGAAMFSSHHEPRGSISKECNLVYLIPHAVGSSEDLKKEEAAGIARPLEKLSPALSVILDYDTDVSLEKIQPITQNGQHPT
# test_details: Allosteric Agonists of the Human D1 Dopamine Receptor: qHTS; also: 0% is about no effect
# condition_info: HEK293 T-REx D1 cells, calcium flux, agonist mode; at 2 µM; hits give high values
In all, about 360,000 compounds went through this assay and about 3,700 (1%) were called active. For the sample, actives were picked, then their nearest neighbours and some compounds at random.

molecule | activation, %
Cc1ccc(C)c(N2C(=O)N(Cc3c(F)cccc3Cl)c3ccccc3S2(=O)=O)c1 | 5.6
COc1ccccc1C(=O)Nc1c(C(=O)N(C)Cc2ccccc2)sc2nc(C)c(Cl)c(C)c12 | 1.11
Cc1cccc(N2CCN(C(=O)CCSCc3ccccc3F)CC2)c1C | 1.3
Cc1ccc(Cl)cc1NC(=O)CCC(=O)N1CC(C)Sc2ccccc21 (stereo not given) | 0.39
COc1ccc(CCC(=O)NCCc2csc(-c3ccc(Cl)cc3)n2)cc1 | 5.93
CCOC(=O)c1c(S(=O)(=O)NCC(=O)Nc2ccc(Cl)c(C(F)(F)F)c2)c(C)n(C)c1C | 6.5
Cc1ccc2c(=O)c(C(=O)c3cccc(Cl)c3)cn(CC(=O)NCc3ccccc3)c2n1 | 0.234
CCNC(=O)CC1C(=O)N(c2ccc(F)cc2)C(=O)N1Cc1ccc(C)cc1 (stereo not given) | -1.09
O=C(OCCN=C1NS(=O)(=O)c2ccccc21)c1cccc([N+](=O)[O-])c1 | 3
N#CC1(NC(=O)COC(=O)CCN=C2NS(=O)(=O)c3ccccc32)CCCCC1 | 4.55
